# tested.target: CDC42BPB (human) (UniProt Q9Y5S2)
# Sequence (Q9Y5S2 whole entry, looked up): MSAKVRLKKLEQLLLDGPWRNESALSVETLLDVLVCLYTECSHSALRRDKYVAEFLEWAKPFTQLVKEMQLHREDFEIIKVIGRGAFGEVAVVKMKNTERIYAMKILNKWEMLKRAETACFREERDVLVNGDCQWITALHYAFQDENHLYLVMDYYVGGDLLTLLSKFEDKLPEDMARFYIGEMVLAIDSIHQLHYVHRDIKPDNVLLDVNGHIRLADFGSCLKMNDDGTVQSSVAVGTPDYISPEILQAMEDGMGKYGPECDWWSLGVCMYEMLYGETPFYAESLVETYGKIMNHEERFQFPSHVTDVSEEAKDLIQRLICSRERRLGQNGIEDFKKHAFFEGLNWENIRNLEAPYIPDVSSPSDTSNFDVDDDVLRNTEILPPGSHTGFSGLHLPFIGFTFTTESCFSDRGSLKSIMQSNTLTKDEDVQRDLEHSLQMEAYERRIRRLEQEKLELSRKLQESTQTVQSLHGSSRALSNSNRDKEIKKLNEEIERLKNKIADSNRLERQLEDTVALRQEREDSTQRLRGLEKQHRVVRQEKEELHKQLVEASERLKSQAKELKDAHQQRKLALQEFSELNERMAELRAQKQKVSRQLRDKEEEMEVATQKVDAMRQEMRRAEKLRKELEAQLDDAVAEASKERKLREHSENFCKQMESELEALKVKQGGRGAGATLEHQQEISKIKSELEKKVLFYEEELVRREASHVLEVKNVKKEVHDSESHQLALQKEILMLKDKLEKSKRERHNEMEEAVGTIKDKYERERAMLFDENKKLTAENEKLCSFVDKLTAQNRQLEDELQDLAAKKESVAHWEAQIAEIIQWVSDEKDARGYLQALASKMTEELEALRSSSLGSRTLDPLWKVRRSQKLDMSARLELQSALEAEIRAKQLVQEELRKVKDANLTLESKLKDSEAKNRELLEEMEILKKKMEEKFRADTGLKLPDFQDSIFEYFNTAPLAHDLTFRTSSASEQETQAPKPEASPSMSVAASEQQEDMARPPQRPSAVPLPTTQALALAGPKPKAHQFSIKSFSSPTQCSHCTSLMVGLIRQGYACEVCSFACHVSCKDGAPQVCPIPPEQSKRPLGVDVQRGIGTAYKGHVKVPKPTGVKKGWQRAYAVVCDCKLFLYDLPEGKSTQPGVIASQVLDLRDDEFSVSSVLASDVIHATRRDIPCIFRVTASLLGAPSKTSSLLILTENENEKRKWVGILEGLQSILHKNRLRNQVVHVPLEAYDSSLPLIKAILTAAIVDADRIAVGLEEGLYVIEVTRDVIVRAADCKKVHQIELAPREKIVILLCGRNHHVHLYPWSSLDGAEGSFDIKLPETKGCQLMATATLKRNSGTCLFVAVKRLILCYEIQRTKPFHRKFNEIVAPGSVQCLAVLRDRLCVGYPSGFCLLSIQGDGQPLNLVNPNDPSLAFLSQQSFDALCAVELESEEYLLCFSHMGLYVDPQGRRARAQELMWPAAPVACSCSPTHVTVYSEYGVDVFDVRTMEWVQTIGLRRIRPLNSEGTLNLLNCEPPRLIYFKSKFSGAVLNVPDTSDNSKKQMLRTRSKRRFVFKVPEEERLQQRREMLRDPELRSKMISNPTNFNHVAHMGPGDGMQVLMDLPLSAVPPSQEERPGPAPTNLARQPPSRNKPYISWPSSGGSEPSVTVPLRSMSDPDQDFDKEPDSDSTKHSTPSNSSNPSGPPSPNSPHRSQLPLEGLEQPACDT
# run.description: Caliper, Mobility shift assay off-chip
# details: compound 0.02 µM
readout: inhibition (%)

{"query.smiles": "COc1cc2c(Oc3ccc4[nH]c(C)cc4c3F)ncnc2cc1OCCCN1CCCC1", "measurement.unit": "%", "inhibition": -8.9}
{"query.smiles": "Cc1ccc(Nc2nccc(N(C)c3ccc4c(C)n(C)nc4c3)n2)cc1S(N)(=O)=O", "measurement.unit": "%", "inhibition": 1.8}

(a) CNC(=O)c1cc(Oc2ccc(NC(=O)Nc3ccc(Cl)c(C(F)(F)F)c3)cc2)ccn1
(b) CNC(=O)c1ccccc1Sc1ccc2c(/C=C/c3ccccn3)n[nH]c2c1
Select the item whose inhibition value is smaller, choosing between a and b . Your choice should be expressed through its label.
a
(a: -3.1%, b: 2.9%)

###

# tested.target: NEK7 (human)
# run.description: Caliper, Mobility shift assay off-chip
# details: compound 0.2 µM
readout: inhibition (%)

Completed entries (count: 2):
{"query.smiles": "Cc1ccc(Nc2nccc(N(C)c3ccc4c(C)n(C)nc4c3)n2)cc1S(N)(=O)=O", "inhibition / %": 0}
{"query.smiles": "CNC(=O)c1cc(Oc2ccc(NC(=O)Nc3ccc(Cl)c(C(F)(F)F)c3)cc2)ccn1", "inhibition / %": -3.3}

(1) CCN(CC)CCNC(=O)c1c(C)[nH]c(/C=C2\C(=O)Nc3ccc(F)cc32)c1C
(2) COc1cc2c(Oc3ccc4[nH]c(C)cc4c3F)ncnc2cc1OCCCN1CCCC1
Select the item whose inhibition value is smaller, choosing between 1 and 2 . Your choice should be expressed through its label.
2

###

# tested.target: UniProt Q02156
# Sequence (Q02156 whole entry, looked up): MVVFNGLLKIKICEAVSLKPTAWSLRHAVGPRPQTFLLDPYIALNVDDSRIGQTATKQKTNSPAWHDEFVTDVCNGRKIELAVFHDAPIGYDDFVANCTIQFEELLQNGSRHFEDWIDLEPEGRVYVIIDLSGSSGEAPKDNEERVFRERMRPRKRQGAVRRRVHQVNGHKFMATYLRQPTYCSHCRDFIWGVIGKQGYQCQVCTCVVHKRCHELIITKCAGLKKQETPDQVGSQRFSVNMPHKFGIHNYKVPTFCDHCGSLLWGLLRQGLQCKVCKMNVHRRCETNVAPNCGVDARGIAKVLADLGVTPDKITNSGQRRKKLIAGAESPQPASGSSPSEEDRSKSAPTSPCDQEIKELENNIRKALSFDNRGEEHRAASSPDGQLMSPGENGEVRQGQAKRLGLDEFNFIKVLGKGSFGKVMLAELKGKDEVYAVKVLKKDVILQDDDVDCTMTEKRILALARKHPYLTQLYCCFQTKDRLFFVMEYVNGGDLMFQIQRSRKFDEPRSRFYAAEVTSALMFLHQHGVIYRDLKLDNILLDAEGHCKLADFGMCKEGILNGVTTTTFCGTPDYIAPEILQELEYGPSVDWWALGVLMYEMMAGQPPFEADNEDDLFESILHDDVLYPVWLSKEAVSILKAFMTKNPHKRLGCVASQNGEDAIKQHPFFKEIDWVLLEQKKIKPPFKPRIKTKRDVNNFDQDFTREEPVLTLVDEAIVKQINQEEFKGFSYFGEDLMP
# run.description: Caliper, Mobility shift assay off-chip
# details: compound 0.2 µM
readout: inhibition (%)

(1) CCN(CC)CCNC(=O)c1c(C)[nH]c(/C=C2\C(=O)Nc3ccc(F)cc32)c1C
(2) COc1cc2c(Oc3ccc4[nH]c(C)cc4c3F)ncnc2cc1OCCCN1CCCC1
Returns: the argument ( 1 or 2 ) having the larger inhibition. Your choice should be expressed through its label.
1
(1: 4.4%, 2: -3%)

(1) CNC(=O)c1cc(Oc2ccc(NC(=O)Nc3ccc(Cl)c(C(F)(F)F)c3)cc2)ccn1
(2) Cc1ccc(Nc2nccc(N(C)c3ccc4c(C)n(C)nc4c3)n2)cc1S(N)(=O)=O
Select the item whose inhibition value is smaller, choosing between 1 and 2 . Your choice should be expressed through its label.
2

###

# tested.target: EIF2AK3 (human)
# run.description: IMAP-FP
# details: compound 0.02 µM
readout: inhibition (%)

{"query.smiles": "CNC(=O)c1cc(Oc2ccc(NC(=O)Nc3ccc(Cl)c(C(F)(F)F)c3)cc2)ccn1", "measured.number": -23.9}
{"query.smiles": "Cc1ccc(Nc2nccc(N(C)c3ccc4c(C)n(C)nc4c3)n2)cc1S(N)(=O)=O", "measured.number": -15}

(1) CNC(=O)c1ccccc1Sc1ccc2c(/C=C/c3ccccn3)n[nH]c2c1
(2) COc1cc2c(Oc3ccc4[nH]c(C)cc4c3F)ncnc2cc1OCCCN1CCCC1
Select the item whose inhibition value is smaller, choosing between 1 and 2 . Your choice should be expressed through its label.
2

###

# tested.target: PAK3 (human)
# run.description: Caliper, Mobility shift assay off-chip
# details: compound 0.02 µM
readout: inhibition (%)

Completed entries (count: 2):
{"query.smiles": "Cc1ccc(Nc2nccc(N(C)c3ccc4c(C)n(C)nc4c3)n2)cc1S(N)(=O)=O", "measurement.unit": "%", "measured.number": 5.7}
{"query.smiles": "COc1cc2c(Oc3ccc4[nH]c(C)cc4c3F)ncnc2cc1OCCCN1CCCC1", "measurement.unit": "%", "measured.number": -1.7}

(I) CNC(=O)c1cc(Oc2ccc(NC(=O)Nc3ccc(Cl)c(C(F)(F)F)c3)cc2)ccn1
(II) CNC(=O)c1ccccc1Sc1ccc2c(/C=C/c3ccccn3)n[nH]c2c1
Select the item whose inhibition value is smaller, choosing between I and II . Your choice should be expressed through its label.
I
(I: -1.4%, II: 7.8%)
